Reference source for all entries: ChEMBL document CHEMBL4725347

Measured Activity, listed per entry for reference.
- Assay Name: Emission property of the compound in chloroform assessed as maximum emission wavelength by fluorescence spectrophotometric method
- Assay type: physicochemical
Respond numerically; units are nm and should not be typed.

>  <Substance Smiles>
Cc1ccc(C2=[N+]3C(=Nc4c(-c5ccccc5)cc(-c5ccc(C)cc5)n4[B-]3(F)F)C(c3ccccc3)=C2Br)cc1

>  <Recorded Endpoint>
Activity

>  <Reported Value>
685

$$$$
>  <Substance Smiles>
COc1ccc(C2=[N+]3C(=Nc4c(-c5ccccc5)c(Br)c(-c5ccc(OC)cc5)n4[B-]3(F)F)C(c3ccccc3)=C2I)cc1

>  <Recorded Endpoint>
Activity

>  <Reported Value>
720

$$$$
>  <Substance Smiles>
COc1ccc(C2=[N+]3C(=Nc4c(-c5ccccc5)c(Br)c(-c5ccc(OC)cc5)n4[B-]3(F)F)C(c3ccccc3)=C2Br)cc1

>  <Recorded Endpoint>
Activity

>  <Reported Value>
720

$$$$
>  <Substance Smiles>
Cc1ccc(C2=[N+]3C(=Nc4c(-c5ccccc5)cc(-c5ccc(C)cc5)n4[B-]3(F)F)C(c3ccccc3)=C2I)cc1

>  <Recorded Endpoint>
Activity

>  <Reported Value>
690

$$$$
>  <Substance Smiles>
COc1ccc(C2=[N+]3C(=Nc4c(-c5ccccc5)c5c(n4[B-]3(F)F)-c3ccc(OC)cc3CC5)C(c3ccccc3)=C2I)cc1

>  <Recorded Endpoint>
Activity

>  <Reported Value>
725

$$$$

Note to self: Activity recorded for COc1ccc(C2=[N+]3C(=Nc4c(-c5ccccc5)cc(-c5ccc(OC)cc5)n4[B-]3(F)F)C(c3ccccc3)=C2)cc1 was 725

The compound listed as COc1ccc(C2=[N+]3C(=Nc4c(-c5ccccc5)c(I)c(-c5ccc(OC)cc5)n4[B-]3(F)F)C(c3ccccc3)=C2I)cc1 has a reported Activity of 723

----------
- Assay Name: Absorption property of the compound in chloroform assessed as absorption coefficient by UV-visible spectrophotometric method
- Type: physicochemical
Recorded Endpoint: Activity
Provide the measurement as a number trailed by its unit.

>  <Substance Smiles>
COc1ccc(C2=[N+]3C(=Nc4c(-c5ccccc5)cc(-c5ccc(OC)cc5)n4[B-]3(F)F)C(c3ccccc3)=C2)cc1

>  <Activity>
99000 M⁻¹ cm⁻¹

$$$$
>  <Substance Smiles>
COc1ccc2c(c1)CCc1c(-c3ccccc3)c3n(c1-2)[B-](F)(F)[N+]1=C(c2ccc(C)s2)C(Br)=C(c2ccccc2)C1=N3

>  <Activity>
73700 M⁻¹ cm⁻¹

$$$$
>  <Substance Smiles>
Cc1ccc(C2=[N+]3C(=Nc4c(-c5ccccc5)cc(-c5ccc(C)cc5)n4[B-]3(F)F)C(c3ccccc3)=C2Br)cc1

>  <Activity>
83600 M⁻¹ cm⁻¹

$$$$
>  <Substance Smiles>
COc1ccc(C2=[N+]3C(=Nc4c(-c5ccccc5)c5c(n4[B-]3(F)F)-c3ccc(OC)cc3CC5)C(c3ccccc3)=C2Br)cc1

>  <Activity>
90300 M⁻¹ cm⁻¹

$$$$

// Activity lookup, compound = COc1ccc2c(c1)CCc1c(-c3ccccc3)c3n(c1-2)[B-](F)(F)[N+]1=C(c2ccc(C)cc2)C(Br)=C(c2ccccc2)C1=N3 , result: 104400 M⁻¹ cm⁻¹

----------
- Assay Name: Photostability of the compound in PBS containing 1% Cremophor EL/1,2-propanediol (10:3, v:v) system assessed as compound degradation irradiated with 90 mW/cm2 light
- Format: physicochemical
- Assay Conditions: buffer
Recorded Endpoint: Stabilty

>  <Substance Smiles>
COc1ccc(C2=[N+]3C(=Nc4c(-c5ccccc5)cc(-c5ccc(OC)cc5)n4[B-]3(F)F)C(c3ccccc3)=C2)cc1

>  <Recorded Endpoint>
Stabilty

>  <Reported Value>
Stable

$$$$
>  <Substance Smiles>
COc1ccc(C2=[N+]3C(=Nc4c(-c5ccccc5)c(Br)c(-c5ccc(OC)cc5)n4[B-]3(F)F)C(c3ccccc3)=C2I)cc1

>  <Recorded Endpoint>
Stabilty

>  <Reported Value>
Stable

$$$$
>  <Substance Smiles>
COc1ccc(C2=[N+]3C(=Nc4c(-c5ccccc5)cc(-c5ccc(OC)cc5)n4[B-]3(F)F)C(c3ccccc3)=C2Br)cc1

>  <Recorded Endpoint>
Stabilty

>  <Reported Value>
Stable

$$$$
>  <Substance Smiles>
COc1ccc(C2=[N+]3C(=Nc4c(-c5ccccc5)c(I)c(-c5ccc(OC)cc5)n4[B-]3(F)F)C(c3ccccc3)=C2I)cc1

>  <Recorded Endpoint>
Stabilty

>  <Reported Value>
Stable

$$$$
>  <Substance Smiles>
COc1ccc(C2=[N+]3C(=Nc4c(-c5ccccc5)cc(-c5ccc(OC)cc5)n4[B-]3(F)F)C(c3ccccc3)=C2I)cc1

>  <Recorded Endpoint>
Stabilty

>  <Reported Value>
Stable

$$$$

Consider the record given below.
Lookup result for COc1ccc(C2=[N+]3C(=Nc4c(-c5ccccc5)c(Br)c(-c5ccc(OC)cc5)n4[B-]3(F)F)C(c3ccccc3)=C2Br)cc1 ; measured Stabilty: Stable
